Tested on: NCI-H358 cells (KRAS G12C mutant)
Experiment: NCI-H358 cell proliferation inhibition (CellTiter-Glo)
Assay type: cell-based
Conditions: read-out: NCI-H358 (IC50)
pIC50: −log10 of the molar value.
reported endpoint: pIC50

>>> numeric_readout("COc1ncc(-c2ccc3ncnc(N4CCC5(CN(C(=O)/C=C/C(C)=O)C5)C4)c3c2)cc1NS(=O)(=O)c1c(F)cccc1F")
7.10

====

pIC50 values by entry
Target: UniProt P42336
Sequence (P42336 whole entry): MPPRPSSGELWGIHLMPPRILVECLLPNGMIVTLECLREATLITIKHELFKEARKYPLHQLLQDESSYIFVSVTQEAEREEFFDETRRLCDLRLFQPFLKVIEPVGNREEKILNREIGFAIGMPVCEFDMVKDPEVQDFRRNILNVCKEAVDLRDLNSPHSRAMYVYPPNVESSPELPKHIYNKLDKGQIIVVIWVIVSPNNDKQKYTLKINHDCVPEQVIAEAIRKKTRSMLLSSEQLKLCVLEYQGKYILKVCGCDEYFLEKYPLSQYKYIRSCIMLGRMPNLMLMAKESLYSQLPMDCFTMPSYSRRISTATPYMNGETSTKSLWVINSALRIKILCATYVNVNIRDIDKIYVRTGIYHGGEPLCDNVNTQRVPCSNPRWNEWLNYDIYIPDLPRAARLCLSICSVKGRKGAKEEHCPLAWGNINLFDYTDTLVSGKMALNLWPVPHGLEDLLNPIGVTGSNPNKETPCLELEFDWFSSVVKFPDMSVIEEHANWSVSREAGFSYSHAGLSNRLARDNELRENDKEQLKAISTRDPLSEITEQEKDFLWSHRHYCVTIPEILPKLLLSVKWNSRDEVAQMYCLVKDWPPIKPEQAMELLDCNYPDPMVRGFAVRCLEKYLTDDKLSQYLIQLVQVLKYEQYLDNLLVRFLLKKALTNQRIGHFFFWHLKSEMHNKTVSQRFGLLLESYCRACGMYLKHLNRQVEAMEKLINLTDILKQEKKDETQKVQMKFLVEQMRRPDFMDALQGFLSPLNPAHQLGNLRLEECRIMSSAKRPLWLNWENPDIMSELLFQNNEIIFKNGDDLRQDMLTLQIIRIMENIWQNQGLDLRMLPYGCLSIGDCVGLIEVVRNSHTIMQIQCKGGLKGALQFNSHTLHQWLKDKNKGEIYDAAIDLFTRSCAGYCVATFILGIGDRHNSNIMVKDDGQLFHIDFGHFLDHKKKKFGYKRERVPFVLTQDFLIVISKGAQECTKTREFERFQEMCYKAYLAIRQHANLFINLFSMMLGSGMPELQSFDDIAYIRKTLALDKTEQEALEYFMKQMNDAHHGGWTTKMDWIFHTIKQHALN
Sequence (P27986 whole entry partner): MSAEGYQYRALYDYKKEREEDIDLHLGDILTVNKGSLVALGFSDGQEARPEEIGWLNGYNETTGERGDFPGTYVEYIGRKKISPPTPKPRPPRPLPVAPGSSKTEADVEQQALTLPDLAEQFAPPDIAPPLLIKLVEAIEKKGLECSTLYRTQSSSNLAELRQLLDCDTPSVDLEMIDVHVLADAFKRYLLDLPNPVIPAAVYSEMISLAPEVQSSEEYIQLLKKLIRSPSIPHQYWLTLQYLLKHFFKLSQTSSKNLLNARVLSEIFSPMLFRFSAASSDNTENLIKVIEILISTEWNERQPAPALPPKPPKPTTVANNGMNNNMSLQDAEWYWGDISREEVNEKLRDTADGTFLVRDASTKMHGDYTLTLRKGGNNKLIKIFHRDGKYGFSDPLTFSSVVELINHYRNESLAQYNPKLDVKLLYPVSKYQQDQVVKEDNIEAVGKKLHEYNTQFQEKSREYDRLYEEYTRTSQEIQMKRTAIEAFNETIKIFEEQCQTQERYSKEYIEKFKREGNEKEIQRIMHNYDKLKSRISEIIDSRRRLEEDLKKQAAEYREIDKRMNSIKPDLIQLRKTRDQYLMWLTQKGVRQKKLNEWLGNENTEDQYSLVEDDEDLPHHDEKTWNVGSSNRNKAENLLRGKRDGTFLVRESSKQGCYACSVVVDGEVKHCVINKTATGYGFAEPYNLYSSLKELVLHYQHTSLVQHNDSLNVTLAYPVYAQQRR
Assay: Inhibition of PI3Kα efficacy assay (ADP-Glo kinase assay)
Format: biochemical
Conditions: Table 4; read-out: PI3Kα inhibitory activity (IC50)
pIC50: −log10 of the molar value.
reported endpoint: pIC50

>>> numeric_readout("COc1ncc(-c2ccc3ncnc(C4=CCN(C(=O)/C=C/C(C)=O)CC4)c3c2)cc1NS(=O)(=O)c1c(F)cccc1F")
8.42
>>> numeric_readout("COc1ncc(-c2ccc3ncnc(N4CCN(C(=O)/C=C/C(C)=O)C[C@@H]4C)c3c2)cc1NS(=O)(=O)c1sc(C)nc1C")
8.66
>>> numeric_readout("COc1ncc(-c2ccc3ncnc(N4CCN(C(=O)/C=C/CF)CC4)c3n2)cc1NS(=O)(=O)c1c(F)cccc1F")
8.01
>>> numeric_readout("COc1ncc(-c2ccc3ncnc(N4CCN(C(=O)/C=C/C(C)=O)CC4)c3c2)cc1NS(=O)(=O)c1c(C)cccc1F")
8.62
>>> numeric_readout("COc1ncc(-c2ccc3ncnc(N4CCN(C(=O)/C=C\\C(=O)C(F)(F)F)CC4)c3c2)cc1NS(=O)(=O)c1ccc(F)cc1F")
8.64
>>> numeric_readout("COc1ncc(-c2ccc3ncnc(C4=CCN(C(=O)/C=C/C(C)=O)CC4)c3c2)cc1NS(=O)(=O)c1sc(C)nc1C")
8.82
>>> numeric_readout("COc1ncc(-c2ccc3ncnc(C4CCN(C(=O)/C=C/C(C)=O)CC4)c3n2)cc1NS(=O)(=O)c1c(F)cccc1Cl")
9.52
>>> numeric_readout("CC(=O)/C=C/C(=O)N1CCN(c2ncnc3ccc(-c4cnc(C(F)(F)F)c(NS(=O)(=O)c5ccc(F)cc5F)c4)cc23)CC1")
8.03
>>> numeric_readout("COc1ncc(-c2ccc3ncnc(N4CCC5(CC4)CN(C(=O)/C=C/C(C)=O)C5)c3c2)cc1NS(=O)(=O)c1ccc(F)cc1Cl")
7.89
